Exercise: state measured TP for each of the compounds provided.
# Species: Rattus norvegicus
# ASSAY METHOD TEXT: Open TG-GATES - Regimen: Daily Repeat
# Assay type: toxicity, organism-based, Sprague-Dawley
# Parameters: regimen Daily Repeat, gender Male, age 6 weeks
# STUDY CONDITIONS: in vivo, po, 300 mg/kg, […], tissue Plasma, route gavage, dose level Middle, time 14 day
Answers are plain numbers, in g/dL.

{"columns": ["CHEMICAL SMILES", "EXPERIMENTAL VALUE"],
 "data": [
  ["Cc1nnc2n1-c1ccc(Cl)cc1C(c1ccccc1Cl)=NC2", 5.7],
  ["CNC(=C[N+](=O)[O-])NCCSCc1ccc(CN(C)C)o1", 6],
  ["CCOc1ccc(NC(C)=O)cc1", 5.9],
  ["CN/C(=N/CCSCc1nc[nH]c1C)NC#N", 5.8],
  ["COC(=O)C1=C(C)NC(C)=C(C(=O)OC)C1c1ccccc1[N+](=O)[O-]", 5.8]
]}

API: the following record is the query input.
Query: Entry `O=C(OC[C@H]1O[C@@H](OC(=O)c2cc(O)c(O)c(OC(=O)c3cc(O)c(O)c(O)c3)c2)[C@H](OC(=O)c2cc(O)c(O)c(OC(=O)c3cc(O)c(O)c(O)c3)c2)[C@@H](OC(=O)c2cc(O)c(O)c(OC(=O)c3cc(O)c(O)c(O)c3)c2)[C@@H]1OC(=O)c1cc(O)c(O)c(OC(=O)c2cc(O)c(O)c(O)c2)c1)c1cc(O)c(O)c(OC(=O)c2cc(O)c(O)c(O)c2)c1` has what TP?
Response: 6

====

Exercise: state measured A/G for each of the compounds provided.
# Species on record: Rattus norvegicus
# ASSAY METHOD TEXT: Open TG-GATES - Regimen: Single
# Assay type: toxicity, organism-based, Sprague-Dawley
# Parameters: regimen Single, gender Male, age 6 weeks
# STUDY CONDITIONS: in vivo, po, 300 mg/kg, 9 h, tissue Plasma, route gavage, dose level Middle

Some compounds with known A/G results, for comparison:
{"columns": ["COMPOUND", "EXPERIMENTAL VALUE"],
 "data": [
  ["Cc1nnc2n1-c1ccc(Cl)cc1C(c1ccccc1Cl)=NC2 [TRIAZOLAM]", 0.9],
  ["CNC(=C[N+](=O)[O-])NCCSCc1ccc(CN(C)C)o1 [RANITIDINE]", 1.6],
  ["O=C(OC[C@H]1O[C@@H](OC(=O)c2cc(O)c(O)c(OC(=O)c3cc(O)c(O)c(O)c3)c2)[C@H](OC(=O)c2cc(O)c(O)c(OC(=O)c3cc(O)c(O)c(O)c3)c2)[C@@H](OC(=O)c2cc(O)c(O)c(OC(=O)c3cc(O)c(O)c(O)c3)c2)[C@@H]1OC(=O)c1cc(O)c(O)c(OC(=O)c2cc(O)c(O)c(O)c2)c1)c1cc(O)c(O)c(OC(=O)c2cc(O)c(O)c(O)c2)c1 [TANNIC ACID]", 2.1]
]}

Query: Entry CN/C(=N/CCSCc1nc[nH]c1C)NC#N [CIMETIDINE] has what A/G?
Response: 1.7

====

# Species: Rattus norvegicus
# ASSAY METHOD TEXT: Open TG-GATES - Regimen: Single
# Type: toxicity, organism-based, Sprague-Dawley
# Parameters: regimen Single, gender Male, age 6 weeks
# STUDY CONDITIONS: in vivo, po, 0 mg/kg, 9 h, tissue Plasma, route gavage, dose level Control
Exercise: state measured Na for each of the compounds provided.
Answers are plain numbers, in meq/L.

Some compounds with known Na results, for comparison:
{"columns": ["COMPOUND", "UNIT STRING", "EXPERIMENTAL VALUE"],
 "data": [
  ["COC(=O)C1=C(C)NC(C)=C(C(=O)OC)C1c1ccccc1[N+](=O)[O-] [NIFEDIPINE]", "meq/L", 143.4],
  ["Brc1ccccc1 [BROMOBENZENE]", "meq/L", 143.2],
  ["CCOc1ccc(NC(C)=O)cc1 [PHENACETIN]", "meq/L", 143.4],
  ["Nc1c2c(nc3ccccc13)CCCC2 [TACRINE]", "meq/L", 142],
  ["CN1C(=O)CCS(=O)(=O)C1c1ccc(Cl)cc1 (configuration not stated) [CHLORMEZANONE]", "meq/L", 143]
]}

Lab note: each compound below needs its Na filled in.
1. CNC(=C[N+](=O)[O-])NCCSCc1ccc(CN(C)C)o1 [RANITIDINE]
2. CN(C)CCC(c1ccc(Cl)cc1)c1ccccn1 (configuration not stated) [CHLORPHENIRAMINE]

Response:
141.2
143.8
